# target.under.test: NDM-1 (Klebsiella pneumoniae, UniProt C7C422)
# Sequence (C7C422 whole entry, looked up, species assumed): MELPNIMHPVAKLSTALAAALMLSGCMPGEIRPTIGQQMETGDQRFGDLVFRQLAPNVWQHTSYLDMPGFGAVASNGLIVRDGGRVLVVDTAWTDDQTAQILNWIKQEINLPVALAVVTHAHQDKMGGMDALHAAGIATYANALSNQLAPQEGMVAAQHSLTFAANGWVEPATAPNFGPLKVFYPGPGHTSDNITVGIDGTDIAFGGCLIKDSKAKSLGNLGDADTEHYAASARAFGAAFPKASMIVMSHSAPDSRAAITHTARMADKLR
# test.name: biochemical
# Type: biochemical
# conditions: fluorescence assay, CCF2-FA substrate, 1 pM enzyme, 2 hours at 25° C.; read-out: NDM-1 IC50
measured.endpoint: IC50 (nM)
Give bare numbers, in nM.

Previously resolved entries follow.
- NCCNc1cc(-c2ccc(S(=O)(=O)NCCO)c(S(N)(=O)=O)c2-c2nn[nH]n2)ccn1: 3.68
- COc1ccnc(CNS(=O)(=O)c2ccc(-c3cccc4sc(N)nc34)c(-c3nnn[nH]3)c2S(N)(=O)=O)n1: 0.0816
- Nc1nc2c(-c3ccc(S(=O)(=O)N[C@@]4(CO)CCNC4)c(S(N)(=O)=O)c3-c3nnn[nH]3)cccc2[nH]1: 0.0524

Quick batch: IC50 for everything below.
1. Nc1nc2c(-c3ccc(S(=O)(=O)NC4(CO)CCNC4)c(S(N)(=O)=O)c3-c3nnn[nH]3)cccc2s1 (stereo not drawn) [Example 84]
2. C[C@H](N)CNS(=O)(=O)c1ccc(-c2cccc3[nH]c(N)nc23)c(-c2nn[nH]n2)c1S(N)(=O)=O
3. Nc1nc2c(-c3ccc(S(=O)(=O)NCC(N)C(F)F)c(S(N)(=O)=O)c3-c3nnn[nH]3)cccc2s1.O=CO (stereo not drawn) [Example 118, formate]
4. C[C@H](N)CNS(=O)(=O)c1ccc(-c2ccnc(N)c2)c(-c2nn[nH]n2)c1S(N)(=O)=O
5. NCC(=O)NC1C=C(c2ccc(S(=O)(=O)N[C@@H]3CCNC3)c(S(N)(=O)=O)c2-c2nn[nH]n2)CCC1 (stereo partly drawn)
6. CN(C[C@@H]1CCCN1)S(=O)(=O)c1ccc(-c2cccc3sc(N)nc23)c(-c2nnn[nH]2)c1S(N)(=O)=O.O=CO [Example 121, formate]
7. NC[C@@H](CO)NS(=O)(=O)c1ccc(-c2ccc(N)nc2)c(-c2nn[nH]n2)c1S(N)(=O)=O
8. Nc1nc2c(-c3ccc(S(=O)(=O)NC[C@H]4CCNC4)c(S(N)(=O)=O)c3-c3nnn[nH]3)cccc2s1

// result
0.0619
0.0347
0.026
0.196
1.17
1.42
0.112
0.0332

Quick batch: IC50 for everything below.
1. Nc1nc2c(-c3ccc(S(=O)(=O)N[C@@H]4CCNC4)c(S(N)(=O)=O)c3-c3nn[nH]n3)cc(I)cc2[nH]1
2. Nc1nc2c(-c3ccc(S(=O)(=O)N[C@H]4CCCNC4)c(S(N)(=O)=O)c3-c3nnn[nH]3)cccc2[nH]1
3. Cn1cnc(CNS(=O)(=O)c2ccc(-c3cccc4sc(N)nc34)c(-c3nnn[nH]3)c2S(N)(=O)=O)n1
4. NC[C@@H](O)CNS(=O)(=O)c1ccc(-c2cnc(N)c(F)c2)c(-c2nn[nH]n2)c1S(N)(=O)=O

// result
[0.0157, 0.219, 0.0973, 0.159]

Quick batch: IC50 for everything below.
1. Nc1nc2c(-c3ccc(S(=O)(=O)N[C@H]4CN[C@H](CO)C4)c(S(N)(=O)=O)c3-c3nnn[nH]3)cccc2s1
2. NC1CCC(c2ccc(S(N)(=O)=O)c(S(N)(=O)=O)c2-c2nnn[nH]2)CC1 (stereo not drawn)
3. NC(=O)c1csc(Nc2cccc(-c3ccc(S(=O)(=O)N[C@@H]4CCNC4)c(S(N)(=O)=O)c3-c3nn[nH]n3)c2)n1
4. NS(=O)(=O)c1c(S(=O)(=O)N[C@@H]2CCNC2)ccc(-c2cccnc2N2CCNCC2)c1-c1nn[nH]n1
5. Nc1nc2c(-c3ccc(S(=O)(=O)N[C@H]4CNC[C@H]4O)c(S(N)(=O)=O)c3-c3nnn[nH]3)cccc2[nH]1
6. NCCN1CC[C@H](NS(=O)(=O)c2ccc(-c3cccc4[nH]c(N)nc34)c(-c3nn[nH]n3)c2S(N)(=O)=O)C1

// result
[0.0225, 17.7, 0.0303, 1.57, 0.0515, 0.0612]
